Biological target: T1, human TIM-3, full length, on cells (human, UniProt Q8TDQ0 22-301)
T1 construct: Also used here for native TIM-3 on PBMC in the functional rows; also called CHOK1-hTIM-3; HEK293-h TIM-3
T1 sequence: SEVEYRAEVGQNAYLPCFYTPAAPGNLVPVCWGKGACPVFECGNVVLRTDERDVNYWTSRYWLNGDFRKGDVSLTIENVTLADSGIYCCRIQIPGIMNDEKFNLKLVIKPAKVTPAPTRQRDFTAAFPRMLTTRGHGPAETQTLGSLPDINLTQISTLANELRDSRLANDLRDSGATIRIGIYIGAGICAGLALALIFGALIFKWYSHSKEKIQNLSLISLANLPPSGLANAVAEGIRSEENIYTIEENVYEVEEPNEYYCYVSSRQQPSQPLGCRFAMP
Test: FACS, CHOK1-hTIM-3 cells; antibody 0.32 nM
Please provide measured Mean fluorescence intensity for the entries that follow.
Reply with the value as a number alone.

Prompt: Need Mean fluorescence intensity, item 18D2H2 (TIM-3 antibody purified from hybridoma, chimeric antibody of Example 2) (antibody, V domains shown, From hybridoma of Harbour H2L2 transgenic mice: human variable regions, rat constant regions) VH: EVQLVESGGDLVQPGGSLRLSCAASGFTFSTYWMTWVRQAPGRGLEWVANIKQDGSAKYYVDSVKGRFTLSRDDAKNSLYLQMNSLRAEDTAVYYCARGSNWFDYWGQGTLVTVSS VL: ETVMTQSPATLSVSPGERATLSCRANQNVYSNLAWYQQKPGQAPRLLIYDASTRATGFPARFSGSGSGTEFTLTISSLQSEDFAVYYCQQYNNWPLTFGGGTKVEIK
Response: 15.6

Prompt: Need Mean fluorescence intensity, item 57F4E5 (TIM-3 antibody purified from hybridoma, chimeric antibody of Example 2) (antibody, V domains shown, From hybridoma of Harbour H2L2 transgenic mice: human variable regions, rat constant regions) VH: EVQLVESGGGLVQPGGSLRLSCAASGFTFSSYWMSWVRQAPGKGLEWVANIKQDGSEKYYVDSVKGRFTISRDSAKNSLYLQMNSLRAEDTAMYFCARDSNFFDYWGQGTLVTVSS VL: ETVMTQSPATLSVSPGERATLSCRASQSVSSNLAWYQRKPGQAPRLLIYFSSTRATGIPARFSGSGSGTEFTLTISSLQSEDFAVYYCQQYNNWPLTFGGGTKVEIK
Response: 177

Prompt: Need Mean fluorescence intensity, item 134H3G6 (TIM-3 antibody purified from hybridoma, chimeric antibody of Example 2) (antibody, V domains shown, From hybridoma of Harbour H2L2 transgenic mice: human variable regions, rat constant regions) VH: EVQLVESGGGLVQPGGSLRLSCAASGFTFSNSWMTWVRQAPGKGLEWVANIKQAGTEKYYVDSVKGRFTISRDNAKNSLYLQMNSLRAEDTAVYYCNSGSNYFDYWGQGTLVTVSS VL: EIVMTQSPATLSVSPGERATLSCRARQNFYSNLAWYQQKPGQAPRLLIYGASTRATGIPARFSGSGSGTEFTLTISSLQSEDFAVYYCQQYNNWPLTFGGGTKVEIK
Response: 17.7

Prompt: Need Mean fluorescence intensity, item 7A4F10 (TIM-3 antibody purified from hybridoma, chimeric antibody of Example 2) (antibody, V domains shown, From hybridoma of Harbour H2L2 transgenic mice: human variable regions, rat constant regions) VH: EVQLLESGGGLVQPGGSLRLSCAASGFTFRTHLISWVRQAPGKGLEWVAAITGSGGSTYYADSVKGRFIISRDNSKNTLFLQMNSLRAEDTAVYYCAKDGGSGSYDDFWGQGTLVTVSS VL: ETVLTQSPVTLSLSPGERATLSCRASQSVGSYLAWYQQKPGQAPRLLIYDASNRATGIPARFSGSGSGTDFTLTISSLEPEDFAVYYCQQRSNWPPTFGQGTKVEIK
Response: 6.8
